# Test system: Rattus norvegicus
# Protocol description: Effect on behavioural activity in rat assessed as cocaine-induced lever response at 5 mg/kg, po pretreated with cocaine for 180 mins by drug-discrimination studies
# Type: functional
Provide the recorded Activity for the entries that follow.
// return numeric value only (unit: %, not printed)

Ask | What Activity value was documented for this molecule, CCCCC(NC(C)(C)C)C(=O)c1cccc(Cl)c1 (stereo not given) ?
Reply | 26

Ask | What Activity value was documented for this molecule, CC(NC1CCCC1)C(=O)c1cccc(Cl)c1 (stereo not given) ?
Reply | 0

Ask | What Activity value was documented for this molecule, CC(NC1CC1)C(=O)c1cccc(Cl)c1 (stereo not given) ?
Reply | 0

Ask | What Activity value was documented for this molecule, CCC(NC(C)(C)C)C(=O)c1ccc(Cl)c(Cl)c1 (stereo not given) ?
Reply | 0

Ask | What Activity value was documented for this molecule, CC(NC(C)(C)C)C(=O)c1cc(F)cc(F)c1 (stereo not given) ?
Reply | 0
